measurement-description: Bioavailability after oral administration (2.5 mg/kg) in monkey was determined
Assay type: ADME, organism-based
run-conditions: cercopithecidae, in vivo
observable: bioavailability (%)
Write the value in % as a bare number.

Item C[C@H]1CC[C@H](C)N1CCCOc1ccc(-c2ccc(C(=O)N3CCOCC3)cc2)cc1 has what recorded bioavailability?
78

---

measured-target: UniProtKB Q9Y5N1
Sequence (Q9Y5N1 whole entry): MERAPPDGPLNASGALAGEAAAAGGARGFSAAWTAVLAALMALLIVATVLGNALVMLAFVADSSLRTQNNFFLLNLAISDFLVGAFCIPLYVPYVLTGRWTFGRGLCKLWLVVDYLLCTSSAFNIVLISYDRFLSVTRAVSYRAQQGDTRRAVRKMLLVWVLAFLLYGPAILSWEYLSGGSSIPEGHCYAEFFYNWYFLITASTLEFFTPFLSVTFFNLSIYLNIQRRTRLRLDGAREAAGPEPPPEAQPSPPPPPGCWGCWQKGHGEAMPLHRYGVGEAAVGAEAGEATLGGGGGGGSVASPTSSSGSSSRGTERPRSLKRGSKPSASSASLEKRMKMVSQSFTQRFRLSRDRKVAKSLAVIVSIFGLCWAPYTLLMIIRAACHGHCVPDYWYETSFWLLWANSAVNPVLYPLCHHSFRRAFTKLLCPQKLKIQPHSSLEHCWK
measurement-description: Binding affinity for human recombinant H3 receptor
param class (str): category from Ki; see ranges low (below 3 nM), medium (3 nM to below 6 nM), high (6 nM or more)

Quick check: band for O=C(c1ccc(-c2ccc(OCCCN3CCCC3)cc2)cc1)N1CCCC1
low

Any idea which band CC1CCN(CCCOc2ccc(-c3ccc(C(=O)N4CCOCC4)cc3)cc2)CC1 is in?
high

Kindly identify the class of CC(C)(C)CCC#C[C@@H]1C[C@H]1c1c[nH]cn1 .
low

Which Ki band matches CC1CCN(CCCOc2ccc(-c3ccc(C(=O)NC(C)C)cc3)cc2)CC1 ?
low

Which class does CC1CCN(CCCOc2ccc(-c3ccc(C(=O)N4CCC(C)CC4)cc3)cc2)CC1 fall in?
high

---

measurement-description: Plasma clearance after oral administration (2.5 mg/kg) in monkey was determined
Format: ADME, organism-based
run-conditions: cercopithecidae, read-out: Clp (converted)
observable: CL/F (mL/min/kg)
Give just the numeric value; mL/min/kg need not be written.

Could you tell me which CL/F is on file for C[C@H]1CC[C@H](C)N1CCCOc1ccc(-c2ccc(C(=O)N3CCOCC3)cc2)cc1 ?
16.7

---

measured-target: Histamine H4 receptor (Homo sapiens)
Sequence (Q9H3N8 whole entry): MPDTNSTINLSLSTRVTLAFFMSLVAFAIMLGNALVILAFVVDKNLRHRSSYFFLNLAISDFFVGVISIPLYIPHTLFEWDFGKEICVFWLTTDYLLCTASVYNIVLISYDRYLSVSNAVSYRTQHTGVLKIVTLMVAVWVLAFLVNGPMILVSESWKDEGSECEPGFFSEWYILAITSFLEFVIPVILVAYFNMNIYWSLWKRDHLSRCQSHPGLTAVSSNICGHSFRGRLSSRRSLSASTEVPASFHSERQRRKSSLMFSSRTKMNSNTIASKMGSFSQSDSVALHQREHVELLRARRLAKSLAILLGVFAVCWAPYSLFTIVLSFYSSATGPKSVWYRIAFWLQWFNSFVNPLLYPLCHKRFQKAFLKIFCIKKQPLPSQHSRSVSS
measurement-description: Binding affinity towards human histaminergic (H4) receptor
observable: Ki (µM)
State the answer as a number, implicitly in µM.

Would you mind telling me what Ki value was observed for C[C@H]1CC[C@H](C)N1CCCOc1ccc(-c2ccc(C(=O)N3CCOCC3)cc2)cc1 [A-349,821] ?
10

---

measurement-description: The peak blood concentration after 5 hr administration (2.5 mg/kg) in dog was determined
Assay type: ADME, organism-based, Canis lupus familiaris
Set-up: dose 2.5 mg/kg
observable: Cmax (µg/mL)
The response must be a number in µg/mL with no trailing unit.

Report Cmax for C[C@H]1CC[C@H](C)N1CCCOc1ccc(-c2ccc(C(=O)N3CCOCC3)cc2)cc1 [A-349,821] please.
0.31

---

measurement-description: Half life period after oral administration (2.5 mg/kg) in dog was determined
Type: ADME, organism-based, Canis lupus familiaris
run-conditions: in vivo
observable: half-life (min)
Express the result in min but write the number alone.

Bench note: what half-life did C[C@H]1CC[C@H](C)N1CCCOc1ccc(-c2ccc(C(=O)N3CCOCC3)cc2)cc1 show?
156

---

The listing below reports pKi for molecules tested on Histamine H3 receptor (Rattus norvegicus, UniProt Q9QYN8).
Sequence (Q9QYN8 whole entry): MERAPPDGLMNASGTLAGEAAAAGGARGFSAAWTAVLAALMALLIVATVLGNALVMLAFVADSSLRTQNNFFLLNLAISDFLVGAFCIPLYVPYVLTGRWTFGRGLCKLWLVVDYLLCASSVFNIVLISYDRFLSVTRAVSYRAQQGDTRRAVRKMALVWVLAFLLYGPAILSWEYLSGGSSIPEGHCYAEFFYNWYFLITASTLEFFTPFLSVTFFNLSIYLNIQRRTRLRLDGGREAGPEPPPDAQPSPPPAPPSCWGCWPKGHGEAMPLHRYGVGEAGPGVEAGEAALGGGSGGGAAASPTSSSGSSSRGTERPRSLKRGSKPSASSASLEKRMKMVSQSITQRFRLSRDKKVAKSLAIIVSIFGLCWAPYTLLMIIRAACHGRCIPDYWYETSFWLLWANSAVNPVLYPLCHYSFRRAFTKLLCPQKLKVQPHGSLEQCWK
Please report pKi as the negative decimal logarithm of the molar concentration, giving only the number.

Reference set (5 entries):
O=C(c1ccc(-c2ccc(OCCCN3CCOCC3)cc2)cc1)N1CCOCC1 ... 7.28
CC(C)(C)CCC#C[C@@H]1C[C@H]1c1c[nH]cn1 [CIPRALISANT] ... 9.71
CC(C)NC(=O)c1ccc(-c2ccc(OCCCN3CCOCC3)cc2)cc1 ... 6.87
CCN(CC)CCCOc1ccc(-c2ccc(C(=O)N3CCC(C)CC3)cc2)cc1 ... 8.08
O=C(c1ccc(-c2ccc(OCCCN3CC[C@H](O)C3)cc2)cc1)N1CCCC1 ... 7.48

Query pKi on Histamine H3 receptor (Rattus norvegicus, UniProt Q9QYN8) for CC(C)NCCCOc1ccc(-c2ccc(C(=O)N3CCCC3C)cc2)cc1 (centres undefined)
7.37

Find the measured pKi: item CC1CCN(CCCOc2ccc(-c3ccc(C(=O)N4CCC(C)CC4)cc3)cc2)CC1 , target or system Histamine H3 receptor (Rattus norvegicus, UniProt Q9QYN8).
7.68

API: value(readout=pKi, system=Histamine H3 receptor (Rattus norvegicus, UniProt Q9QYN8)) for record O=C(c1ccc(-c2ccc(OCCCN3CCOCC3)cc2)cc1)N1CCCC1
6.75

Any idea what pKi came out for CN(C)[C@@H]1CCN(CCCOc2ccc(-c3ccc(C(=O)N4CCCC4)cc3)cc2)C1 on Histamine H3 receptor (Rattus norvegicus, UniProt Q9QYN8)?
7.73
